test-protocol: DRUGMATRIX: Potassium Channel [KATP] radioligand binding (ligand: [3H] Glyburide)
Assay type: cell membranes, Membrane
measurement-context: hit-t15; Not Active = under 50% inhibition at 10 µM
endpoint-label: Ki

Solved entries (count: 9):
Exercise: Write down Ki measured for item "CN(CCOc1ccc(C[C@H](Nc2ccccc2C(=O)c2ccccc2)C(=O)O)cc1)c1ccccn1"
Key: Not Active

Exercise: Write down Ki measured for item O=[As][O-].[Na+] [SODIUM ARSENITE]
Key: Not Active

Exercise: Answer with reported Ki of O=C(Nc1ccc(Cl)c(Cl)c1)c1cc(Cl)cc(Cl)c1O [3,3',4',5-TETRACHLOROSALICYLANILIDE]
Key: Not Active

Exercise: Identify measured Ki corresponding to O=C(NCCN1CCOCC1)c1ccc(Cl)cc1 [MOCLOBEMIDE]
Key: Not Active

Exercise: // Input: "CC(C)(C#N)c1cc(Cn2cncn2)cc(C(C)(C)C#N)c1" . Output its Ki only.
Key: Not Active

Exercise: Return value of Ki for input "CCCCCCNC(=O)n1cc(F)c(=O)[nH]c1=O" , no commentary.
Key: Not Active

Exercise: Please report Ki for the following compound: NS(=O)(=O)c1cc(C(=O)O)c(NCc2ccco2)cc1Cl [FUROSEMIDE]
Key: Not Active

Exercise: State, in one line, measured Ki of O=C(c1ccccc1)c1ccc2n1CCC2C(=O)O (stereo not given)
Key: Not Active

Exercise: Give a short answer stating reported Ki for "CCN(CC)N=O" .
Key: Not Active

Now turn to the next compound.
Exercise: Give a short answer stating reported Ki for "Cc1cnc(NC(=O)C2=C(O)c3ccccc3S(=O)(=O)N2C)s1" .
Key: Not Active
